Values were extracted from the supplement of paper PMC10567573.

Readings of protein stability index for the listed variants
B1: TTC32 (parent)
chain: YSAYIRRCACAASSDESPGSKCSP

# Variants of: B1
# assay_procedure: protein stability index of a GFP-peptide fusion (GPS, HEK-293T) (PSI 1-6); higher = more stable;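 also: lentivirally expressed fusions sorted by FACS into six bins by GFP to DsRed ratio, PSI derived from sequencing read proportions per bin multiplied by bin number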
# recorded_conditions: c terminus: a fixed tail appended
measured_quantity: protein stability index

> print(dat)
    variant  test.value
 1     C10L        2.28
 2     S20Y        1.61
 3      A3E        1.92
 4     G19I        1.89
 5     S20I        1.85
 6     G19D        2.83
 7      R6K        1.97
 8      R7G         2.7
 9     P24G        2.23
10     S23R        2.44
11     G19Y        2.35
